Test: Human HepG2 cell viability assay in 384 well format
Format: toxicity, cell-based
Parameters: dose 125 nL, time 70.5 hour; concentration not given beside the values
Conditions: HepG2 cells, read-out: Inhibition
Each entry below lists one item and its recorded cytotoxicity at 70.5 h value.

>  <Compound>
COCCn1cc(CC(=O)Nc2nc[nH]n2)c2ccccc21

>  <cytotoxicity at 70.5 h / %>
-6.37

$$$$
>  <Compound>
Cc1cccnc1CN1CCN(C(=O)c2ccn(C(C)(C)C)c2)CC1

>  <cytotoxicity at 70.5 h / %>
40.4

$$$$
>  <Compound>
CCCNC(=O)c1cncc(CC2CCCN(C)C2)c1 (stereo not given)

>  <cytotoxicity at 70.5 h / %>
-6.34

$$$$
>  <Compound>
CN1CCCC1c1cc2cccnc2n1Cc1ccc(F)cc1 (stereo not given)

>  <cytotoxicity at 70.5 h / %>
-5.23

$$$$
>  <Compound>
Cn1cc(CN2CCO[C@@H]3CN(C4CCCC4)C[C@@H]3C2)cn1

>  <cytotoxicity at 70.5 h / %>
1.26

$$$$
>  <Compound>
CC(C)CN1C(=O)c2ccc(C(=O)NCCc3c[nH]cn3)cc2C1=O

>  <cytotoxicity at 70.5 h / %>
-0.52

$$$$
>  <Compound>
NC(=O)N1CCCC(C(=O)N2CCc3c(nc(CC4CC4)[nH]c3=O)C2)C1 (stereo not given)

>  <cytotoxicity at 70.5 h / %>
-6.32

$$$$
>  <Compound>
CCN(C)c1ncnc2c1CCN(C(=O)COC)CC2

>  <cytotoxicity at 70.5 h / %>
-10.8

$$$$
>  <Compound>
CC1CCN(CCNC(=O)C2CCN(C(=O)NC(C)C)CC2)CC1

>  <cytotoxicity at 70.5 h / %>
-6.3

$$$$
>  <Compound>
CCOc1cc(CNC(=O)C(C#N)c2nc(C)cs2)ccc1OC(F)F (stereo not given)

>  <cytotoxicity at 70.5 h / %>
-0.465

$$$$
>  <Compound>
Cn1ncc2c(NC3CCCN(C(=O)C4CC4)C3)nc(C(C)(C)C)nc21 (stereo not given)

>  <cytotoxicity at 70.5 h / %>
2.96

$$$$
>  <Compound>
CCc1noc(CSc2n[nH]c(-c3ccccn3)n2)n1

>  <cytotoxicity at 70.5 h / %>
-3.21

$$$$
>  <Compound>
CC(C)NC(=O)N1CCc2ncnc(-c3ccncc3)c2CC1

>  <cytotoxicity at 70.5 h / %>
-3.38

$$$$
>  <Compound>
O=S1(=O)CCN2C(=N1)Oc1ccc(S(=O)(=O)N3CCCC3)cc12

>  <cytotoxicity at 70.5 h / %>
-5.8

$$$$
>  <Compound>
O=C(c1cnccn1)N1CC[C@@H]2CO[C@@H](CN3CCCC3)[C@@H]2C1

>  <cytotoxicity at 70.5 h / %>
-5.22

$$$$
>  <Compound>
Cc1cccc(CS(=O)(=O)NCc2nn(C)c3c2COCC3)c1

>  <cytotoxicity at 70.5 h / %>
-7.96

$$$$
>  <Compound>
CC(C)(C)c1noc(CCCC(=O)N2CCNC(=O)C2)n1

>  <cytotoxicity at 70.5 h / %>
-16.6

$$$$
>  <Compound>
CN1CCO[C@@H]2CN(C(=O)c3ccc4[nH]ccc4c3)CC[C@@H]2C1

>  <cytotoxicity at 70.5 h / %>
-10.4

$$$$
>  <Compound>
COCCNc1ncc(-c2cccc(F)c2)c(-c2nccn2C)n1

>  <cytotoxicity at 70.5 h / %>
11

$$$$
>  <Compound>
c1ccc(Cn2cc3c(n2)C(CNCC2CCOCC2)OCC3)nc1 (stereo not given)

>  <cytotoxicity at 70.5 h / %>
-1.54

$$$$
>  <Compound>
CC(C)=CCC1(C(=O)O)CCCN(c2cc(N)ncn2)C1 (stereo not given)

>  <cytotoxicity at 70.5 h / %>
6.26

$$$$
>  <Compound>
Cc1nc(CCNC(=O)C2CCN(C(C)C)CC2)sc1Cl

>  <cytotoxicity at 70.5 h / %>
-0.288

$$$$
>  <Compound>
O=C(c1cnn2c1OCCC2)N1CCN(C/C=C/c2ccccc2)CC1

>  <cytotoxicity at 70.5 h / %>
7.17

$$$$
>  <Compound>
CCn1nc(C)c(C(C)Nc2cc(C3CCNCC3)nc(C)n2)c1C (stereo not given)

>  <cytotoxicity at 70.5 h / %>
-23.1

$$$$
>  <Compound>
c1ccc(CN2CCOC3(COCCN(c4ncccn4)C3)C2)nc1 (stereo not given)

>  <cytotoxicity at 70.5 h / %>
-12.3

$$$$
>  <Compound>
CCn1cnnc1CCNC(=O)C(C)(C)c1cccc(Cl)c1

>  <cytotoxicity at 70.5 h / %>
-7.37

$$$$
>  <Compound>
Cn1cc(C(=O)N2CC[C@@]3(O)CCN(C(=O)C4CCCC4)C[C@H]3C2)cn1

>  <cytotoxicity at 70.5 h / %>
-10.4

$$$$
>  <Compound>
Cc1ncc(C(=O)N2CCCC2c2c(C)nn(C)c2C)s1 (stereo not given)

>  <cytotoxicity at 70.5 h / %>
-2.56

$$$$
>  <Compound>
CN(C)C(=O)CN1CCC2(CCN(C(=O)N(C)C)CC2)C1=O

>  <cytotoxicity at 70.5 h / %>
17

$$$$
>  <Compound>
Cc1ccc(-n2ncc3c2CCCC3N)cc1C (stereo not given)

>  <cytotoxicity at 70.5 h / %>
-4

$$$$
>  <Compound>
CC(C)c1nc(CC(=O)N(C)Cc2ccc3c(c2)OCO3)cs1

>  <cytotoxicity at 70.5 h / %>
-6.29

$$$$
>  <Compound>
CCC(C)Nc1ccc2c(c1)C1(CCOCC1)C(=O)N2c1ccccc1 (stereo not given)

>  <cytotoxicity at 70.5 h / %>
-7.71

$$$$
>  <Compound>
O=C(NCCCNc1ccccc1)c1scnc1Cl

>  <cytotoxicity at 70.5 h / %>
4.41

$$$$
>  <Compound>
COCCSc1ccc(-n2cccn2)nn1

>  <cytotoxicity at 70.5 h / %>
12.3

$$$$
>  <Compound>
O=C(CCc1nc2cc(Br)cnc2[nH]1)NCCCn1ccnc1

>  <cytotoxicity at 70.5 h / %>
-17.5

$$$$
>  <Compound>
O=C(Nc1cccc(CNCc2cccs2)c1)C1CC1

>  <cytotoxicity at 70.5 h / %>
-8.51

$$$$
>  <Compound>
OCC1(CNC2CCc3cc4c(cc32)OCCO4)CC1 (stereo not given)

>  <cytotoxicity at 70.5 h / %>
22.1

$$$$
>  <Compound>
CNC(=O)c1cn[nH]c1C1CCN(Cc2cccc(C)c2OC)C1 (stereo not given)

>  <cytotoxicity at 70.5 h / %>
-3.82

$$$$
>  <Compound>
CC(C)NC(=O)N1CCC(c2nnc3n2CCNC3)CC1

>  <cytotoxicity at 70.5 h / %>
16.3

$$$$
>  <Compound>
c1ccc(N2CCN(Cc3cnc(C4CCCCO4)nc3)CC2)nc1 (stereo not given)

>  <cytotoxicity at 70.5 h / %>
-4.5

$$$$
